Target: Pro-neuregulin-1, membrane-bound isoform (Homo sapiens)
Assay: NRG1 binders on small-molecule microarrays, primary screen, psychiatric disease protein project, biochemical, small-molecule microarray, fluorescence 635/667 (AID 1075);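 note: score combines 667 nm spot fluorescence with signal to noise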
Details: NRG1 binding, 635 nm fluorescence, higher = more signal
Entries and their composite z-score
Keep it simple and answer with nothing but the number.

Past entries and their recorded results:
compound="COC(=O)CC=C[C@@H](C)[C@@H](C=NOC(C)CN1CCCCc2nc(C)c(C)cc21)OC (some centres undefined)" metric_name="composite z-score" recorded_result=0.33
compound=CC(=O)OC[C@H]1O[C@H](CC=NO[C@@H](C)c2cn([C@H](CO)Cc3ccccc3)nn2)C=C[C@@H]1OC(C)=O metric_name="composite z-score" recorded_result=1.24
compound=O=C1[C@H]2[C@H]3[C@H](O)[C@H](O)CC(=NOC[C@@H](O)COCc4ccco4)[C@@H]3CC[C@H]2C(=O)N1Cc1ccccc1 metric_name="composite z-score" recorded_result=0.39

// next item, composite z-score requested
composite z-score reading for `COC(=O)CC=C[C@@H](C)[C@@H](C=NOC[C@@H](O)[C@H]1O[C@@H]2OC(C)(C)O[C@@H]2[C@H]1O)OC` : -0.0348
